Reference for the values: patent US20240417458A1

- assay system: T1, soluble rat RGMa (rat, UniProt D4A188 48-421)
- T1 construct: Soluble antigen in BIAcore
- T1 sequence: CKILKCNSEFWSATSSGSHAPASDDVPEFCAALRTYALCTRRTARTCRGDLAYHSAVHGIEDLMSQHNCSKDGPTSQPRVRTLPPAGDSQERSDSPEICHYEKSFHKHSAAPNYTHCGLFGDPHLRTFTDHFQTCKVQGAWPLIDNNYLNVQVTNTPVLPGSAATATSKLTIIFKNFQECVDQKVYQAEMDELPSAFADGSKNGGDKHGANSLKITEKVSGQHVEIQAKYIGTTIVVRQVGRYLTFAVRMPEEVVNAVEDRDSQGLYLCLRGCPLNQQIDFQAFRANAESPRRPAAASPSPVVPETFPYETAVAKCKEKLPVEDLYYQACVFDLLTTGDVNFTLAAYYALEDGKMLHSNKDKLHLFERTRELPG
- protocol: SPR (BIAcore);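 further: binding kinetics and affinity of anti-HJV antibodies toward soluble rat RGMa, determined by SPR on a BIAcore instrument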
measure: koff (s⁻¹)
Form entry: value (s⁻¹) — number only.

Example binders with recorded koff:
binder	experimental value
hHA-001 (antibody, human IgG1, kappa, L234A L235A, V domains shown, hIgG1 constant region with L234A, L235A, kappa) VH: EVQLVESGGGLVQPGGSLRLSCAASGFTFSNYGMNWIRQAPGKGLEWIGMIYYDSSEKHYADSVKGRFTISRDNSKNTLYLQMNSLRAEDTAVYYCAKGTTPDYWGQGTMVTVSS VL: DVVLTQSPLSLPVTLGQPASISCRSSQSLETSDGDTFLEWFQQRPGQSPRLLIYEVSTRFSGVPDRFSGSGSGTDFTLKISRVEAEDVGVYYCFQVTHDPMTFGQGTKLEIKR	3.6e-05
hHA-009 (antibody, human IgG1, kappa, L234A L235A, V domains shown, hIgG1 L234A, L235A, kappa) VH: EVQLVESGGGLVQPGGSLRLSCAASGFTFSNYGMNWVRQAPGKGLEWIGMIYYDSSEKHYADSVKGRFTISRDNSKNTLYLQMNSLRAEDTAVYYCAKGTTPDYWGQGTMVTVSS VL: DVVLTQSPLSLPVTLGQPASISCRSSQSLADSDGDTFLHWFQQRPGQSPRLLIYAVSHRFSGVPDRFSGSGSGTDFTLKISRVEAEDVGVYYCFQATHDPVTFGQGTKLEIKR	0.00021

Note: attention shifts to another entry.
// Input: hHA-011 (antibody, human IgG1, kappa, L234A L235A, V domains shown, hIgG1 L234A, L235A, kappa) VH: EVQLVESGGGLVQPGGSLRLSCAASGFTFSNYGMNWVRQAPGKGLEWIGMIYYDSSEKHYADSVKGRFTISRDNSKNTLYLQMNSLRAEDTAVYYCAKGSTPDYWGQGTMVTVSS VL: DVVLTQSPLSLPVTLGQPASISCRSSQSLEDSDGGTFLEWFQQRPGQSPRLLIYDVSSRFSGVPDRFSGSGSGTDFTLKISRVEAEDVGVYYCFQATHDPLSFGQGTKLEIKR . Output its koff only. 5.2e-05
